# assay-summary: In vivo PK study in male Sprague Dawley rats
# condition-label: male, Sprague Dawley, rat, plasma; rats, PO, dosage of 10 mg/kg
readout-name: Cmax (ng/mL)
The response must be a number in ng/mL with no trailing unit.

Cmax in this record for `C[C@@H](CO)n1cnc2c(-c3cccc(F)c3)nc(-c3ccc(Cl)cc3)cc2c1=O` : 610

* * *

# assay-summary: In vivo PK study in male Sprague Dawley rats
# condition-label: male, Sprague Dawley, rat, plasma; rats, PO, dosage of 10 mg/kg; read-out: AUCLast Mean
readout-name: AUC(0-t) (ng·h/mL)
The response must be a number in ng·h/mL with no trailing unit.

AUC(0-t) in this record for C[C@@H](CO)n1cnc2c(-c3cccc(F)c3)nc(-c3ccc(Cl)cc3)cc2c1=O [Compound 7] : 7820

* * *

What AUC(0-inf) was measured for each of the following?
# assay-summary: In vivo PK study in male CD1 mice
# condition-label: male, CD1, mouse, plasma; mice, 10 mg/kg PO; read-out: AUCInf Mean
The response must be a number in ng·h/mL with no trailing unit.

AUC(0-inf) in this record for `Cc1ccc(-c2cc3c(=O)n([C@@H](C)CO)cnc3c(-c3cccnc3)n2)cc1` : 519

AUC(0-inf) in this record for `CC(C)(O)Cn1cnc2c(-c3cccnc3)nc(-c3ccc(C(F)(F)F)nc3)cc2c1=O` : 34200

* * *

What solubility at 2 h was measured for each of the following?
# assay-summary: Solubility Determination Assay in PBS pH 1.6 and pH 7.4
# Format: physicochemical
# condition-label: PBS buffer, aqueous buffer, kinetic from dmso stock, PBS pH 7.4, 25° C., read-out: Aq. Solubility at pH = 7.4

solubility at 2 h in this record for `C[C@H](O)Cn1cnc2c(-c3cnn(C)c3)nc(-c3ccc(C(F)(F)F)cn3)cc2c1=O` : 0.1 to 1 µM

solubility at 2 h in this record for `C[C@@H](CO)n1cnc2c(-c3cccnc3)nc(-c3cnc(C4CC4)s3)cc2c1=O` : ≥ 1 µM

solubility at 2 h in this record for `C[C@@H](CO)n1cnc2c(-c3cnn(C)c3)nc(-c3ccc(Cl)cc3)cc2c1=O` : 0.1 to 1 µM

solubility at 2 h in this record for `O=c1c2cc(-c3ccc(C(F)(F)F)nc3)nc(-c3cccnc3)c2ncn1C[C@@H](O)C(F)(F)F` : ≥ 1 µM

solubility at 2 h in this record for `Cn1cc(-c2nc(-c3ccc(C(F)(F)F)cn3)cc3c(=O)n([C@H]4COC[C@H]4O)cnc23)cn1` : 0.1 to 1 µM

solubility at 2 h in this record for `Cn1cc(-c2nc(-c3cnc(C(F)(F)F)nc3)cc3c(=O)n(CC(C)(C)O)cnc23)cn1` : 0.1 to 1 µM

solubility at 2 h in this record for `O=c1c2cc(-c3ccc(C(F)(F)F)nc3)nc(-c3cccnc3)c2ncn1[C@@H]1COC[C@H]1O` : ≥ 1 µM

solubility at 2 h in this record for `C[C@@H](CO)n1cnc2c(-c3cccc(F)c3)nc(-c3ccc(Cl)cc3)cc2c1=O` : < 0.1 µM

solubility at 2 h in this record for `C[C@@H](CO)n1cnc2c(-n3ccnc3)nc(-c3ccc(OC(F)(F)F)cc3)cc2c1=O` : 0.1 to 1 µM

solubility at 2 h in this record for `CC(C)(O)Cn1cnc2c(-c3cn[nH]c3)nc(-c3ccc(C(F)(F)F)nc3)cc2c1=O` : 0.1 to 1 µM

solubility at 2 h in this record for `C[C@@H](CO)n1cnc2c(-c3cnsc3)nc(-c3ccc(Cl)cc3)cc2c1=O` : < 0.1 µM

solubility at 2 h in this record for `O=c1c2cc(-c3ccc(C(F)(F)F)nc3)nc(-c3cccnc3)c2ncn1C[C@H](O)C(F)(F)F` : ≥ 1 µM

solubility at 2 h in this record for `C[C@H](n1cnc2c(-c3cccnc3)nc(-c3ccc(Cl)cc3)cc2c1=O)C(C)(C)O` : < 0.1 µM

solubility at 2 h in this record for `CC(C)(O)Cn1cnc2c(-n3ccnc3)nc(-c3ccc(C(F)(F)F)cn3)cc2c1=O` : ≥ 1 µM

solubility at 2 h in this record for `C[C@@H](CO)n1cnc2c(-c3cccnc3)nc(-c3ccc(OC(F)(F)F)cc3)cc2c1=O` : ≥ 1 µM

solubility at 2 h in this record for `C[C@@H](CO)n1cnc2c(-c3cccnc3)nc(-c3ccc(OC(F)(F)F)nc3)cc2c1=O` : ≥ 1 µM

solubility at 2 h in this record for O=c1c2cc(-c3ccc(Cl)cc3)nc(-c3cccnc3)c2ncn1C[C@H](O)C(F)(F)F (single isomer, unassigned) [185 enantiomer 2] : 0.1 to 1 µM

solubility at 2 h in this record for `C[C@@H](CO)n1cnc2c(-c3cncc(F)c3)nc(-c3ccc(OC(F)(F)F)cc3)cc2c1=O` : 0.1 to 1 µM

solubility at 2 h in this record for `Cn1cc(-c2nc(-c3ccc(Cl)cc3)cc3c(=O)n(CC(C)(C)O)cnc23)cn1` : ≥ 1 µM

solubility at 2 h in this record for O=c1c2cc(-c3ccc(Cl)cc3)nc(-c3cccnc3)c2ncn1[C@H]1COC[C@H]1O (stereo in doubt) : ≥ 1 µM

solubility at 2 h in this record for `C[C@H](n1cnc2c(-c3cnn(C)c3)nc(-c3ccc(Cl)cc3)cc2c1=O)C(C)(C)O` : 0.1 to 1 µM

solubility at 2 h in this record for `Cn1cc(-c2nc(-c3ccc(C(F)(F)F)nc3)cc3c(=O)n(C[C@@H](O)C(F)(F)F)cnc23)cn1` : < 0.1 µM

solubility at 2 h in this record for `C[C@@H](O)Cn1cnc2c(-c3cccnc3)nc(-c3ccc(C(F)(F)F)nc3)cc2c1=O` : ≥ 1 µM

solubility at 2 h in this record for `C[C@@H](CO)n1cnc2c(-c3cccnc3)nc(-c3ccc(Cl)cc3)cc2c1=O` : ≥ 1 µM

solubility at 2 h in this record for `O=c1c2cc(-c3ccc(C4CC4)nc3)nc(-c3cccnc3)c2ncn1C[C@H](O)C(F)(F)F` : ≥ 1 µM

solubility at 2 h in this record for `O=c1c2cc(-c3ccc(OC(F)(F)F)cc3)nc(-c3cccnc3)c2ncn1C[C@H](O)C(F)(F)F` : < 0.1 µM

solubility at 2 h in this record for `CC(C)(O)Cn1cnc2c(-c3cccnc3)nc(-c3ccc(Cl)cc3)cc2c1=O` : ≥ 1 µM

solubility at 2 h in this record for `C[C@@H](CO)n1cnc2c(-c3cnsc3)nc(-c3ccc(C(F)(F)F)nc3)cc2c1=O` : ≥ 1 µM

solubility at 2 h in this record for `O=c1c2cc(-c3ccc(Cl)cc3)nc(-c3cccnc3)c2ncn1[C@@H]1COC[C@H]1O` : ≥ 1 µM

solubility at 2 h in this record for `O=c1c2cc(-c3ccc(C(F)(F)F)cn3)nc(-c3cccnc3)c2ncn1[C@@H]1COC[C@@H]1O` : ≥ 1 µM

* * *

# measured-on: AHR (Homo sapiens)
# Construct: other cell line with a DRE-luciferase reporter stably transfected; endogenous in cells
# Sequence (P35869 11-848): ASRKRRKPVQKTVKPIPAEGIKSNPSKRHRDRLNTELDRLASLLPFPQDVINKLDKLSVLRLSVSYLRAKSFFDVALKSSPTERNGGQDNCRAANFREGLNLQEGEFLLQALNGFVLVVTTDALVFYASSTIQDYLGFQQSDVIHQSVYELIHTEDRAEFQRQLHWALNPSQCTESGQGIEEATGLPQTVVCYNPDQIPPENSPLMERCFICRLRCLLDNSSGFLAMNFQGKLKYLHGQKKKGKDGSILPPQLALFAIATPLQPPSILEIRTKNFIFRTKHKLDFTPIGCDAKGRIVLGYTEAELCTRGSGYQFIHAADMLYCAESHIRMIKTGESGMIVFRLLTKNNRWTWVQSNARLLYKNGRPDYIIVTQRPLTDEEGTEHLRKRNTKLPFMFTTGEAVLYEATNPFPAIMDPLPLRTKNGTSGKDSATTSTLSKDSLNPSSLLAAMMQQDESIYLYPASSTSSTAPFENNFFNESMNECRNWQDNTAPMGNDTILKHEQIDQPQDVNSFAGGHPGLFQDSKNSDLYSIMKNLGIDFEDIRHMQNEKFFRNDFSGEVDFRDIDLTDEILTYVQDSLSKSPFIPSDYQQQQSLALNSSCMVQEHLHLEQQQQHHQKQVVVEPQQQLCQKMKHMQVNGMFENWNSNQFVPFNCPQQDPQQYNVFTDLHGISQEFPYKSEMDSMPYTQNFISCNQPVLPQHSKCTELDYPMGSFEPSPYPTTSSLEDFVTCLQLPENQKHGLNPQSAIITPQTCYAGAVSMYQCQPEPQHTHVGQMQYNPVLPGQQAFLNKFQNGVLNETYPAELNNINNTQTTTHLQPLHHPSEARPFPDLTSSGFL
# assay-summary: DRE-Luciferase Reporter Assay, HepG2 AhR-Lucia reporter cells
# condition-label: with AHR activating ligand at EC50, read-out: HepG2-Luc IC50
What IC50 was measured for each of the following?

IC50 in this record for `Cc1ccc(-c2cc3c(=O)n([C@@H](C)CO)cnc3c(-c3cccnc3)n2)cc1` : < 100 nM

IC50 in this record for `CC(C)(O)Cn1cnc2c(-c3cccc(F)c3)nc(-c3ccc(Cl)cc3)cc2c1=O` : < 100 nM

IC50 in this record for `CC(C)(O)Cn1cnc2c(-c3cccnc3)nc(-c3cccnc3C(F)(F)F)cc2c1=O` : > 500 nM

IC50 in this record for `C[C@@H](CO)n1cnc2c(-c3cnn(C)c3)nc(-c3cnc(C(F)(F)F)nc3)cc2c1=O` : < 100 nM

IC50 in this record for `C[C@@H](CO)n1cnc2c(-c3ccccn3)nc(-c3ccc(C(F)(F)F)nc3)cc2c1=O` : 100 to 500 nM

IC50 in this record for `C[C@@H](CO)n1cnc2c(-c3cccnc3)nc(-c3cnnn3C)cc2c1=O` : > 500 nM

IC50 in this record for `C[C@@H](CO)n1cnc2c(-c3cncc(F)c3)nc(-c3ccc(C(F)(F)F)cc3)cc2c1=O` : < 100 nM

IC50 in this record for `C[C@@H](CO)n1cnc2c(-n3cncn3)nc(-c3ccc(C(F)(F)F)nc3)cc2c1=O` : 100 to 500 nM

IC50 in this record for `Cn1cc(-c2nc(-c3ccc(Cl)cc3)cc3c(=O)n([C@@H]4COC[C@H]4O)cnc23)cn1` : < 100 nM

IC50 in this record for `CC(C)(O)Cn1cnc2c(-c3cccnc3)nc(-c3ccc(C(F)(F)F)cn3)cc2c1=O` : < 100 nM

IC50 in this record for `Cn1cc(-c2nc(-c3ccc(C(F)(F)F)nc3)cc3c(=O)n(CC(C)(C)O)cnc23)cn1` : < 100 nM

IC50 in this record for `Cn1cc(-c2nc(-c3ccc(C(F)(F)F)nc3)cc3c(=O)n([C@@H]4COC[C@@H]4O)cnc23)cn1` : < 100 nM

IC50 in this record for `O=c1c2cc(-c3ccc(Cl)cc3)nc(-c3cccnc3)c2ncn1[C@@H]1COC[C@H]1O` : < 100 nM

IC50 in this record for `C[C@@H](CO)n1cnc2c(-c3cnn(C)c3)nc(-c3ccc(C(F)(F)F)cn3)cc2c1=O` : < 100 nM

IC50 in this record for `CCN(CC)c1nc(-c2ccc(C(F)(F)F)nc2)cc2c(=O)n([C@@H](C)CO)cnc12` : < 100 nM

IC50 in this record for `Cn1cc(-c2nc(-c3ccc(C(F)(F)F)nc3)cc3c(=O)n([C@@H]4COC[C@H]4O)cnc23)cn1` : < 100 nM

IC50 in this record for `C[C@@H](CO)n1cnc2c(-c3ccncc3)nc(-c3ccc(C(F)(F)F)nc3)cc2c1=O` : 100 to 500 nM

IC50 in this record for `C[C@@H](CO)n1cnc2c(-c3cccnc3)nc(-c3ccc(Cl)cc3)cc2c1=O` : < 100 nM

IC50 in this record for `CC(C)[C@@H](CO)n1cnc2c(-c3cc(F)cc(F)c3)nc(-c3cc(F)cc(F)c3)cc2c1=O` : < 100 nM

IC50 in this record for `C[C@@H](CO)n1cnc2c(-c3ccc(=O)[nH]c3)nc(-c3ccc(Cl)cc3)cc2c1=O` : 100 to 500 nM

IC50 in this record for `O=c1c2cc(-c3cnc(C(F)(F)F)s3)nc(-c3cccnc3)c2ncn1[C@H]1COC[C@@H]1O` : < 100 nM

IC50 in this record for `Cn1cc(-c2nc(-c3ccc(C(F)(F)F)nc3)cc3c(=O)n([C@H]4COC[C@H]4O)cnc23)cn1` : < 100 nM

IC50 in this record for O=c1c2cc(-c3ccc(Cl)cc3)nc(-c3cccc(F)c3)c2ncn1C[C@@H](O)C(F)(F)F (stereo in doubt) : < 100 nM

IC50 in this record for `Cc1ccc(-c2cc3c(=O)n([C@@H](C)CO)cnc3c(-c3cccc(F)c3)n2)cc1` : < 100 nM

IC50 in this record for `O=c1c2cc(-c3ccc(C(F)(F)F)nc3)nc(-c3cccnc3)c2ncn1C[C@@H](O)C(F)(F)F` : < 100 nM

IC50 in this record for `O=c1c2cc(-c3ccc(C(F)(F)F)nc3)nc(-c3cccnc3)c2ncn1[C@@H]1CCS(=O)(=O)C1` : < 100 nM

IC50 in this record for `C[C@@H](CO)n1cnc2c(-c3ccc(=O)n(C)c3)nc(-c3ccc(Cl)cc3)cc2c1=O` : > 500 nM

IC50 in this record for `O=c1c2cc(-c3ccc(C(F)(F)F)nc3)nc(-c3cccnc3)c2ncn1[C@@H]1COC[C@@H]1O` : < 100 nM

IC50 in this record for `C[C@@H](CO)n1cnc2c(-c3cccnc3)nc(C3CCCCC3)cc2c1=O` : > 500 nM

IC50 in this record for `C[C@@H](CO)n1cnc2c(N3CCCCC3)nc(-c3ccc(Cl)cc3)cc2c1=O` : < 100 nM

IC50 in this record for `C[C@@H](CO)n1cnc2c(-c3cccnc3)nc(Cl)cc2c1=O` : > 500 nM
